Biological target: HEK-293 cells expressing human recombinant adenosine A2A receptor (Homo sapiens (Human), UniProt P29274)
Sequence (P29274 whole entry): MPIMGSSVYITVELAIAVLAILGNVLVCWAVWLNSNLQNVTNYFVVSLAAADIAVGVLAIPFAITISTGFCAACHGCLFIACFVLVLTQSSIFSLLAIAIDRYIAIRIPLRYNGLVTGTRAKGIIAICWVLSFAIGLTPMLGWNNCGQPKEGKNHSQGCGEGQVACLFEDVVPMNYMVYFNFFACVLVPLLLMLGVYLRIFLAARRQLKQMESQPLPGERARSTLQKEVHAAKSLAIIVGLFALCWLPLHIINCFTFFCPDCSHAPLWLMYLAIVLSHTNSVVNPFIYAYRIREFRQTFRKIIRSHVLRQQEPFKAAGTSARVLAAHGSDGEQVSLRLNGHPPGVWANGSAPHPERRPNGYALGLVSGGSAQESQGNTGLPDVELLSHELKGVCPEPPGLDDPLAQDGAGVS
Test: cAMP assay, Assay 2 (Eu-cAMP tracer / ULight-anti-cAMP)
Type: cell-based
Settings: Assay 2
Overview of recorded pIC50 for various molecules
Kindly note that pIC50 refers to -log10 of the concentration in mol/L and answer with the value alone.

Examples from the recorded data:
{"MOLECULE": "Cn1ccc(-c2nc(N)cnc2-c2ccc3c(=O)[nH]ccc3c2)n1 [Compound 1.315]", "QUANTITATIVE READOUT": 5.85}
{"MOLECULE": "Cn1ccc(-c2nc(N)c(C(N)=O)nc2-c2cc(Cl)c3ncccc3c2)n1 [Compound 1.311]", "QUANTITATIVE READOUT": 6.55}
{"MOLECULE": "Cc1ccn(-c2nc(N)cnc2-c2cc(Cl)c3ncccc3c2)n1 [Compound No. 1.271]", "QUANTITATIVE READOUT": 7.30}

Next item in the queue.
Task: Look up pIC50: Cc1cnn(-c2nc(N)cnc2-c2cc(Cl)c3ncccc3c2)c1 [Compound 1.303]
Output: 6.24
